# assay target: Dnmt3a-CD F162V (Mus musculus, UniProt O88508 608-908, F748V)
# Sequence (O88508 608-908 F748V): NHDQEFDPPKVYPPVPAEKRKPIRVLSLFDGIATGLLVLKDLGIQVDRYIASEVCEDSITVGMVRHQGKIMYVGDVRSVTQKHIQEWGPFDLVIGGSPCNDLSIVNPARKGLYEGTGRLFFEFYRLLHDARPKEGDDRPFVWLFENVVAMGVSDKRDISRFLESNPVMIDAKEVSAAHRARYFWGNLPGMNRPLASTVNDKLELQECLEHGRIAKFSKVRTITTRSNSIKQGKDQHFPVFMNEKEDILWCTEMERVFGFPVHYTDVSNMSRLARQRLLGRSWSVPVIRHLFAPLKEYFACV
# protocol summary: fluorescence polarization; 100 uM AdoHcy; no plateau reached; Buffer A: 20 mM HEPES pH 7.5, 100 mM KCl, 1 mM EDTA, 1 mM DTT, 100 uM AdoHcy, 25 C; DNA 100 nM (Methods) or 10 nM (Figure 6 legend); Hill fit
# settings: protein: recombinant; tags: C-terminal His6; chain copies: 2; label: 5'-FAM on strand 1 via aminohexyl linker; blunt
reported endpoint: Kd (nM)
Numbers only; they are read as nM.

// Kd lookup, binder = fCG/CG (dsDNA) DNA 1: CTGAATACTACTTGCGCTCTCTAACCTGAT DNA 2: ATCAGGTTAGAGAGCGCAAGTAGTATTCAG , result: 232
